- System: HCT-116
- assay details: NCI tumour cell line growth inhibition, 48 h
Calls of active or inactive are those of the source. Rule as the data show it: active = GI50 up to about 1.1 µM and inactive = higher.
Use one of these outcomes when replying: yes (1) = active, no (0) = inactive

Some solved entries appear below for comparison.
C=CCC12CCC(=O)C=C1CCC1(C2)OCCO1 (stereo not given) : no (0)
c1ccc(C(c2ccccc2)[P+](c2ccccc2)(c2ccccc2)c2ccccc2)cc1 : yes (1)
CN(Cc1cnc2nc(N)nc(N)c2n1)c1ccc(C(=O)NC(CCC(=O)O)C(=O)O)c2ccccc12 (stereo not given) : yes (1)
C[C@@]1(O)C[C@@H](N2C(=O)O[C@@H](c3ccccc3)[C@H]2c2ccccc2)[C@@H]1COCc1ccccc1 : no (0)
COc1ccc(N2C(=O)C3c4[nH]c5ccc(F)cc5c4C4CCC(c5ccccc5)CC4C3C2=O)cc1 (stereo not given) : no (0)

Incoming: Hey, what did the test say about O=C(OCC1CCCN2CCCCC12)c1ccncc1 (stereo not given) ?
Outgoing: no (0)

Incoming: Likewise for CC1=C(/C(C)=N/NS(=O)(=O)c2ccc(C)cc2)Sc2ccccc2N1 ?
Outgoing: no (0)

Incoming: Likewise for Cc1nn(C(=O)c2ccc(Cl)cc2)c2c1C(c1ccco1)SC(=N)N2 (stereo not given) ?
Outgoing: no (0)

Incoming: Likewise for c1ccc(SC2(Sc3ccccc3)CCCC2)cc1 ?
Outgoing: no (0)

Incoming: Likewise for [N-]=[N+]=Nc1c(-c2ccccc2)c(Cl)nc2ccccc12 ?
Outgoing: no (0)

---

- System: T47D
- assay details: NCI tumour cell line growth inhibition, 48 h
Active and inactive are the calls of the source. Cut-off read from the data, not from the text of the source: active = GI50 up to about 1.1 µM and inactive = higher.
attribute measured: GI50

Consider the following illustrative entries.
CCOC(=O)C1C(=O)C=C(c2cc(C)ccc2O)CC1c1cccc(Br)c1 (centres undefined) : 18.6 µM (inactive)
COc1cc2c(c(OC)c1OC)-c1c(cc3c(c1OC)OCO3)CC(C)C(C)(O)C2OC(=O)c1ccccc1 (centres undefined) : 42.3 µM (inactive)
C[C@H]1CC[C@@]2(OC1)O[C@H]1C[C@H]3[C@@H]4CC[C@@H]5C[C@@H](OC6OC(CO)C(O)C(O)C6OC6OC(CO)C(O)C(O)C6O)CC[C@]5(C)[C@H]4CC[C@]3(C)[C@H]1[C@@H]2C (some centres undefined) : 1.99 µM (inactive)
C[N+]1(C)CCOC(O)(c2ccccc2)C1 (centres undefined) : > 100 µM (inactive)
CNC(=O)OCc1c(COC(=O)NC)c(-c2ccc(-c3ccccc3)cc2)n(C)c1C : 2.39 µM (inactive)
Nc1ccc2nc(N)n[n+]([O-])c2c1 : > 100 µM (inactive)

Incoming: Any idea what GI50 was measured for CC1C(OS(=O)(=O)c2ccc3nc(S)sc3c2)CC2C3(C)CCC2(C(C)C(=O)O)C(O)C13 (centres undefined) ?
Outgoing: 21.2 µM (inactive)

Incoming: Likewise for O=P1(Oc2ccccc2)NCc2ncccc2O1 (centres undefined) ?
Outgoing: > 100 µM (inactive)

Incoming: Likewise for C/N=c1/oc2ccccc2cc1C(N)=O ?
Outgoing: > 100 µM (inactive)

---

- Test system: MOLT-4
- assay details: NCI tumour cell line growth inhibition, 48 h
Where a name gives a salt, the structure may show the parent alone. The source made the active and inactive calls. Cut-off read from the data, not from the text of the source: active = GI50 up to about 1.1 µM and inactive = higher.
Parameter GI50: see the listing below.

Consider the following illustrative entries.
CCC(C)(C)C(=O)O[C@H]1C[C@@H](C)C=C2C=C[C@H](C)[C@H](CC[C@@H]3C[C@@H](O)CC(=O)O3)[C@H]21 [SIMVASTATIN] : > 30 µM (inactive)
NCCc1cc(O)c(O)cc1O [OXIDOPAMINE HYDROCHLORIDE] : 21.8 µM (inactive)
Nc1nc(N)c(N=O)c(OCC2CCCCC2)n1 : 6.64 µM (inactive)
C=CCN1C(=O)C/C(=C2/CCC(=O)N2CC=C)C1=O : > 100 µM (inactive)

Incoming: Any idea what GI50 was measured for c1ccc(SC2(Sc3ccccc3)CCCC2)cc1 ?
Outgoing: > 100 µM (inactive)

Incoming: Likewise for Cc1ccc(C)n1-n1c(-c2ccccc2)n[nH]c1=O ?
Outgoing: > 100 µM (inactive)

Incoming: Likewise for CCC1C(c2cccc(OC)c2O)c2cc3c(cc2OC1N1CCCC1)OCO3 (configuration not stated) ?
Outgoing: 12.8 µM (inactive)

Incoming: Likewise for C=CCC12CCC(=O)C=C1CCC1(C2)OCCO1 (configuration not stated) ?
Outgoing: > 100 µM (inactive)

---

- System: HOP-92
- assay details: NCI tumour cell line growth inhibition, 48 h
Activity calls are given as the source filed them. Rule as the data show it: active = GI50 up to about 1.1 µM and inactive = higher.
Use one of these outcomes when replying: active, inactive

Some solved entries appear below for comparison.
[B].c1ccc([Si](OCCN2CC2)(c2ccccc2)c2ccccc2)cc1 : inactive
CCCC1N2CCCCC2[C@@H]2c3[nH]c4ccccc4c3CCN12 (stereo partly specified) : inactive
CCNc1nc(N)c(C(=O)c2cccs2)s1 : inactive

--- query ---
Incoming: Hey, what did the test say about O=C1NCCN1/N=C/c1c(Cl)n(-c2ccccc2)c2ccccc12 ?
Outgoing: inactive

---

- Tested on: XF498
- assay details: NCI tumour cell line growth inhibition, 48 h
The source made the active and inactive calls. Cut-off read from the data, not from the text of the source: active = GI50 up to about 1.1 µM and inactive = higher.
attribute measured: GI50

N#CC(C(=O)C(N)=O)c1ccccc1Cl (stereo unspecified) : > 100 µM (inactive)

Could you now look at the following molecule, please?
Incoming: Any idea what GI50 was measured for CC(=O)OC1CC2(c3ccccc3)C(=O)c3ccccc3N2O1 (stereo unspecified) ?
Outgoing: > 100 µM (inactive)

---

- Tested on: A549
- assay details: NCI tumour cell line growth inhibition, 48 h
Calls of active or inactive are those of the source. Rule as the data show it: active = GI50 up to about 1.1 µM and inactive = higher.
attribute measured: GI50

Consider the following illustrative entries.
CC(C)(C)C1=Cc2cc3cc(C(C)(C)C)[nH]c(=O)c3cc2S(=O)(=O)N1 : 23.2 µM (inactive)
COC(=O)CCc1ccc2c(c1)CC1(C2)Cc2ccc3c(c2C1)CCC3 (stereo not given) : 53.5 µM (inactive)
O=[N+]([O-])c1cccc(-c2ncc3c(n2)-c2ccccc2C3)c1 : > 100 µM (inactive)

Incoming: Any idea what GI50 was measured for O=P1(Oc2ccccc2)NCc2ncccc2O1 (stereo not given) ?
Outgoing: > 100 µM (inactive)

Incoming: Likewise for CC(C)C(/C=C/c1ccccc1)=N\NC(=O)N/N=C(/C=C/c1ccccc1)C(C)C ?
Outgoing: 23.1 µM (inactive)

---

- Tested on: SK-MEL-5
- assay details: NCI tumour cell line growth inhibition, 48 h
The source made the active and inactive calls. No stated cut-off is given here; in the data, active = GI50 up to about 1.1 µM and inactive = higher.
Parameter GI50: see the listing below.

Consider the following illustrative entries.
Cc1cc(N(CCC#N)CCC#N)ccc1C(/N=N\c1ccc(C(=O)O)cc1)=N\NC(=O)c1cc(Cl)ccc1O : 78.7 µM (inactive)
OCCSCCCSCCO : > 100 µM (inactive)
CCCCCCc1cc2cc(C(=O)NCc3ccccc3)c(=N)oc2cc1O : > 100 µM (inactive)

Incoming: Any idea what GI50 was measured for N#Cc1ccc(C(C2C(=O)NC(=O)NC2=O)C2C(=O)NC(=O)NC2=O)cc1 ?
Outgoing: > 100 µM (inactive)

Incoming: Likewise for N#Cc1cc([N+](=O)[O-])ccc1NC(=O)C(=O)C(C(=O)/C=C/c1ccccc1)C1OC(=O)c2ccccc21 (stereo not given) ?
Outgoing: > 100 µM (inactive)

Incoming: Likewise for C/C(=N\NC(=S)NC(CCC(=O)O)C(=O)O)c1cnccn1 (stereo not given) ?
Outgoing: > 100 µM (inactive)

Incoming: Likewise for CSc1ccc(Cc2cc(C(C)(C)C)cc(C(C)(C)C)c2O)cc1 ?
Outgoing: 15.6 µM (inactive)

Incoming: Likewise for COC(=O)c1ccc2c(c1)CC1(C2)Cc2cc3c(c(C(=O)OC)c2C1)CCCC3 (stereo not given) ?
Outgoing: 21.2 µM (inactive)

Incoming: Likewise for CCOC(=O)C1=C(C)N(NC(N)=O)C2(O)CCCC(=O)C12C (stereo not given) ?
Outgoing: > 100 µM (inactive)

Incoming: Likewise for O=C(NN1C(=O)C(Cl)C1c1ccc([N+](=O)[O-])cc1)c1ccccc1O (stereo not given) ?
Outgoing: > 100 µM (inactive)

---

- System: UACC-257
- assay details: NCI tumour cell line growth inhibition, 48 h
The source made the active and inactive calls. Rule as the data show it: active = GI50 up to about 1.1 µM and inactive = higher.
Parameter GI50: see the listing below.

Cc1ccc(C)n1-n1c(-c2ccccc2)n[nH]c1=O : > 100 µM (inactive)
COc1ccc(NC(=O)C(=O)C(C(=O)c2ccccc2)C2OC(=O)c3ccccc32)c([N+](=O)[O-])c1 (stereo not drawn) : > 100 µM (inactive)

Could you now look at the following molecule, please?
Incoming: Any idea what GI50 was measured for c1ccc(C(c2ccccc2)[P+](c2ccccc2)(c2ccccc2)c2ccccc2)cc1 ?
Outgoing: 0.348 µM (active)

---

- System: HOP-62
- assay details: NCI tumour cell line growth inhibition, 48 h
The source made the active and inactive calls. Rule as the data show it: active = GI50 up to about 1.1 µM and inactive = higher.
Use one of these outcomes when replying: class 1 for active, class 0 for inactive

Some solved entries appear below for comparison.
CCOC(=O)NN(C(=O)OCC)C(C(=O)C1=CCCCC1)N(NC(=O)OCC)C(=O)OCC : class 0
COc1cc2c(cc1OC)[C@]1(O)C(=O)c3ccc4c(c3O[C@@H]1CO2)C[C@H](C(C)(C)O)O4 : class 0

Incoming: Hey, what did the test say about N/N=C1\C(=O)N(Cc2ccccc2)C(=O)C1C(=O)NCc1ccccc1 (stereo unspecified) ?
Outgoing: class 0

Incoming: Likewise for O=C1C2=C(SCCS2)C(=O)c2ccccc21 ?
Outgoing: class 0

Incoming: Likewise for FC(F)(F)c1nc2ccc(SSc3ccc4nc(C(F)(F)F)[nH]c4c3)cc2[nH]1 ?
Outgoing: class 0

Incoming: Likewise for COc1cc2ccc3c4ccccc4cnc3c2cc1OC ?
Outgoing: class 0

Incoming: Likewise for Nc1nc(N)c(N=O)c(OCC2CCCCC2)n1 ?
Outgoing: class 0

Incoming: Likewise for CCc1nc(N)nc(N)c1-c1ccc(Cl)c([N+](=O)[O-])c1 ?
Outgoing: class 1
